# target-desc: ZNF277 (UniProt Q9NRM2)
# Sequence (Q9NRM2 whole entry, looked up): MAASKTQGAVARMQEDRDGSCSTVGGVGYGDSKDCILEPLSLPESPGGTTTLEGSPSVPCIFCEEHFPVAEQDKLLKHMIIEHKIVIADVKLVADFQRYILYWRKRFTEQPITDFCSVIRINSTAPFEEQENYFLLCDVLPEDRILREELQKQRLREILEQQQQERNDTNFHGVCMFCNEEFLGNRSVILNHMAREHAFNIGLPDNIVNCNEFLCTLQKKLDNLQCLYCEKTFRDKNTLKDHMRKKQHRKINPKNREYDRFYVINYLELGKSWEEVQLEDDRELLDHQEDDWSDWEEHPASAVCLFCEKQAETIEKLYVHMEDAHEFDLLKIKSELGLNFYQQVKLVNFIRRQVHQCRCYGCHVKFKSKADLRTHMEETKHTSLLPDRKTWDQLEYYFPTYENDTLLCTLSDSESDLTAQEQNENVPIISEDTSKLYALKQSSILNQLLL
# experiment-description: log2 fold change, soluble protein after heating vs DMSO (PISA); higher = thermal stabilisation; K562 cells, 10 uM, 30 min; active = over 0.2 and 3.5 SD of the protein, either way, in both replicates (recomputed)
Of roughly 7,900 targets only a part is listed; those with a hit were picked by preference. About 0.6% of all pairs of compound and target were hits.
Label 1 when log2 fold change >= 0.03; otherwise -1.

# test-smiles, label-class
records = [
    ("CCn1c(C(=O)N(C2CC2)C2CC2)cc2c3c(ncn3C)c(Nc3cc(C)n(C)n3)nc21", -1),
]

query: Can CN1CC[C@H](c2c(O)cc(O)c3c(=O)cc(-c4ccccc4Cl)oc23)[C@H](O)C1 be said to have log2 fold change at or above 0.03?
result: 1

query: Try this compound too: Oc1cc(-c2nc(-c3ccccc3)[nH]c2-c2ccncc2)ccc1Cl
result: -1

query: Try this compound too: O=C1NC(=O)C(c2cnc3ccccn23)=C1c1cn2c3c(cc(F)cc13)CN(C(=O)N1CCCCC1)CC2
result: 1

query: Try this compound too: CCN(CC)Cc1ccc2cc(COC(=O)Nc3ccc(C(=O)NO)cc3)ccc2c1
result: 1

query: Try this compound too: CC[C@H](C)n1cc(C)c2c(C(=O)NCc3c(C)cc(C)[nH]c3=O)cc(-c3ccc(N4CCNCC4)nc3)cc21
result: -1

Value source: the supplement of paper PMC10849652
